Would you mind telling me the reported melting point of each entry?

Some solved entries appear below for comparison.
MOLECULE | PARAMETER | RECORDED VALUE
CCCNC(=O)N1C2=NC(C)(C)N(C)C(=O)N2c2ccccc21 | melting point | 85 to 87 °C
CCCCc1nc(Cl)c(C=O)n1Cc1ccc(-c2ccccc2-c2nc(=O)o[nH]2)cc1 | melting point | 181 to 183 °C

Report melting point for every entry below.
1. CC(=O)c1ccc(NS(C)(=O)=O)c(Oc2ccc(F)cc2F)c1
2. CC(C)n1cc(-c2nc(C(N)=O)c(N)nc2-c2ccc(OC(F)(F)F)cc2)ccc1=O
3. O=S(=O)(NCc1ccccc1)c1ccc2nc(S)sc2c1
4. CCOC(=O)C(=CNc1nncs1)C(=O)c1cc(F)c(Cl)nc1Cl
5. C=CCN1C2CCC3C1CCC2N3C(c1ccc(C(=O)N2CCCC2)cc1)c1cccc(OC)c1 (centres undefined)
6. Nc1ccc(C2Oc3cc4c(cc3O2)CC2COC(=O)N2N=C4)cc1 (centres undefined)

Result:
1: 117 to 118 °C; 2: 264 °C; 3: 214 to 215 °C; 4: 137 to 140 °C; 5: 126 to 128 °C; 6: 173 to 175 °C

Q: Recorded melting point for CC(C)(C)OC(=O)N1CCC(c2ccc(COc3ccc(-c4nc[nH]n4)cc3)nc2)CC1 , please?
Result: 147 to 150 °C
